# Target entity: PI3K
# Construct: PI3K Enzyme Activity Assay IC50 (nM); other: 10 μM ATP, 180 μM phosphatidyl inositol, 60 min
# Assay details: PI3K enzyme activity assay (luminescence, ATP consumption, Kinase-Glo)
# Protocol conditions: 10 μM ATP, 180 μM phosphatidyl inositol, 60 min

{"Compound": "CC(=O)N1c2ccc(-c3ccc(C(=O)N4CCN(C(=O)c5cn6cc(-c7cnc(N)nc7)nc(N7CCOCC7)c6n5)CC4)cc3)cc2CCC1C (stereo not shown)", "IC50": "> 500 nM"}
{"Compound": "CC(=O)N1c2ccc(-c3ccc(C(=O)NCCNC(=O)c4cc5nc(-c6cnc(N)nc6)nc(N6CCOCC6)c5s4)cc3)cc2CC[C@@H]1C", "IC50": "100 to 500 nM"}
{"Compound": "CC(=O)N1c2ccc(-c3ccc(CN4CCN(Cc5cc6nc(-c7cnc(N)nc7)nc(N7CCOCC7)c6s5)CC4)cc3)cc2CC[C@@H]1C", "IC50": "100 to 500 nM"}
{"Compound": "CC(=O)N1c2ccc(-c3ccc(C(=O)NCc4cc5nc(-c6cnc(N)nc6)nc(N6CCOCC6)c5s4)cc3)cc2CC[C@@H]1C", "IC50": "100 to 500 nM"}
{"Compound": "CC(=O)N1c2ccc(-c3ccc(C(=O)NCCNC(=O)c4sc5c(N6CCOCC6)nc(-c6cnc(N)nc6)nc5c4C)cc3)cc2CC[C@@H]1C", "IC50": "≤ 100 nM"}
{"Compound": "CC(=O)N1c2ccc(-c3ccc(CNC(=O)c4cn5cc(-c6cnc(N)nc6)nc(N6CCOCC6)c5n4)cc3)cc2CCC1C (stereo not shown)", "IC50": "≤ 100 nM"}
{"Compound": "CC(=O)N1c2ccc(-c3ccc(CNC(=O)c4nc5c(N6CCOCC6)nc(-c6cnc(N)nc6)cn5c4C)cc3)cc2CC[C@@H]1C", "IC50": "≤ 100 nM"}
{"Compound": "CC(=O)N1c2ccc(-c3ccc(CNC(=O)c4cn5cc(-c6cnc(N)nc6)nc(N6CCOCC6)c5n4)s3)cc2CCC1C (stereo not shown)", "IC50": "≤ 100 nM"}
{"Compound": "CC(=O)N1c2ccc(-c3ccc(C(=O)NCCCNC(=O)c4cn5cc(-c6cnc(N)nc6)nc(N6CCOCC6)c5n4)cc3)cc2CC[C@@H]1C", "IC50": "≤ 100 nM"}
{"Compound": "CC(=O)N1c2ccc(-c3ccc(C(=O)NCCNC(=O)c4nc5c(N6CCOCC6)nc(-c6cnc(N)nc6)cn5c4C)cc3)cc2CC[C@@H]1C", "IC50": "≤ 100 nM"}
{"Compound": "CC(=O)N1c2ccc(-c3ccc(CNC(=O)CNC(=O)c4cn5cc(-c6cnc(N)nc6)nc(N6CCOCC6)c5n4)cc3)cc2CCC1C (stereo not shown)", "IC50": "≤ 100 nM"}
{"Compound": "CC(=O)N1c2ccc(-c3ccc(C(=O)CNC(=O)c4cn5cc(-c6cnc(N)nc6)nc(N6CCOCC6)c5n4)cc3)cc2CCC1C (stereo not shown)", "IC50": "≤ 100 nM"}
{"Compound": "CC(=O)N1c2ccc(-c3ccc(C(=O)CN4CCN(C(=O)c5cn6cc(-c7cnc(N)nc7)nc(N7CCOCC7)c6n5)CC4)cc3)cc2CCC1C (stereo not shown)", "IC50": "≤ 100 nM"}

---

# Target entity: PI3K
# Construct: PI3K Enzyme Activity Assay IC50 (nM); other: 10 μM ATP, 180 μM phosphatidyl inositol, 60 min
# Assay details: PI3K enzyme activity assay (luminescence, ATP consumption, Kinase-Glo)
# Protocol conditions: 10 μM ATP, 180 μM phosphatidyl inositol, 60 min
pIC50: −log10 of the molar value.
Items are presented alongside their recorded pIC50.

{"Compound": "CC(=O)N1c2ccc(-c3ccc(CN4CCN(C(=O)c5cn6cc(-c7cnc(N)nc7)nc(N7CCOCC7)c6n5)CC4)s3)cc2CCC1C (stereo not drawn)", "pIC50": "6.30 to 7.00"}
{"Compound": "CC(=O)N1c2ccc(-c3ccc(C(=O)N4CCN(Cc5cc6nc(-c7cnc(N)nc7)nc(N7CCOCC7)c6s5)CC4)cc3)cc2CC[C@@H]1C", "pIC50": "6.30 to 7.00"}
{"Compound": "CC(=O)N1c2ccc(-c3ccc(C(=O)NCCNC(=O)c4cn5cc(-c6cnc(N)nc6)nc(N6CCOCC6)c5n4)cc3)cc2CCC1C (stereo not drawn)", "pIC50": "6.30 to 7.00"}

---

# Test system: OPM2 cells
# Assay details: Cell proliferation assay (ViaLight, cellular ATP)
# Type: cell-based
# Protocol conditions: Homo sapiens, OPM-2, 120 h, 5 days, 5 μM to 1 nM

{"Compound string": "CC(=O)N1c2ccc(-c3cccc(NC(=O)Cc4cn5cc(-c6cnc(N)nc6)nc(N6CCOCC6)c5n4)c3)cc2CC[C@@H]1C", "GI50": "100 to 500 nM"}
{"Compound string": "CC(=O)N1c2ccc(-c3ccc(C(=O)NCCNC(=O)c4sc5c(N6CCOCC6)nc(-c6cnc(N)nc6)nc5c4C)cc3)cc2CC[C@@H]1C", "GI50": "≤ 100 nM"}
{"Compound string": "CC(=O)N1c2ccc(-c3ccc(CN(C)Cc4cc5nc(-c6cnc(N)nc6)nc(N6CCOCC6)c5s4)cc3)cc2CC[C@@H]1C", "GI50": "> 500 nM"}

---

# Test system: OPM2 cells
# Assay details: Cell proliferation assay (ViaLight, cellular ATP)
# Assay type: cell-based
# Protocol conditions: Homo sapiens, OPM-2, 120 h, 5 days, 5 μM to 1 nM
Observed property: GI50

{"Compound string": "CC(=O)N1c2ccc(-c3ccc(CNC(=O)c4cn5cc(-c6cnc(N)nc6)nc(N6CCCCC6)c5n4)cc3)cc2CC[C@@H]1C", "Observed property": "GI50", "Result": "100 to 500 nM"}
{"Compound string": "CC(=O)N1c2ccc(-c3cccc(CNC(=O)c4cn5cc(-c6cnc(N)nc6)nc(N6CCOCC6)c5n4)c3)cc2CC[C@@H]1C", "Observed property": "GI50", "Result": "100 to 500 nM"}
{"Compound string": "CC(=O)N1c2ccc(-c3ccc(CNC(=O)c4cc5nc(-c6cnc(N)nc6)nc(N6CCOCC6)c5s4)cc3)cc2CC[C@@H]1C", "Observed property": "GI50", "Result": "≤ 100 nM"}

---

# Target entity: PI3K
# Construct: PI3K Enzyme Activity Assay IC50 (nM); other: 10 μM ATP, 180 μM phosphatidyl inositol, 60 min
# Assay details: PI3K enzyme activity assay (luminescence, ATP consumption, Kinase-Glo)
# Protocol conditions: 10 μM ATP, 180 μM phosphatidyl inositol, 60 min

{"Compound string": "CC(=O)N1c2ccc(-c3ccc(CC(=O)NCc4cc5nc(-c6cnc(N)nc6)nc(N6CCOCC6)c5s4)cc3)cc2CC[C@@H]1C", "IC50": "≤ 100 nM"}
{"Compound string": "CC(=O)N1c2ccc(-c3ccc(CNC(=O)c4cc5nc(-c6cnc(N)nc6)nc(N6CCOCC6)c5s4)cc3)cc2CC[C@@H]1C", "IC50": "> 500 nM"}
{"Compound string": "CC(=O)N1c2ccc(-c3ccc(CNC(=O)c4sc5c(N6CCOCC6)nc(-c6cnc(N)nc6)nc5c4C)cc3)cc2CC[C@@H]1C", "IC50": "> 500 nM"}

---

# System: OPM2 cells
# Assay details: Cell proliferation assay (ViaLight, cellular ATP)
# Type: cell-based
# Protocol conditions: Homo sapiens, OPM-2, 120 h, 5 days, 5 μM to 1 nM
Observed property: GI50

{"Compound": "CC(=O)N1c2ccc(-c3ccc([C@H](C)NC(=O)c4cn5cc(-c6cnc(N)nc6)nc(N6CCOCC6)c5n4)cc3)cc2CC[C@@H]1C [Cpd 062]", "Target entity": "OPM2 cells", "Observed property": "GI50", "Result": "≤ 100 nM"}
{"Compound": "CC(=O)N1c2ccc(-c3cccc(CCNC(=O)c4sc5c(N6CCOCC6)nc(-c6cnc(N)nc6)nc5c4C)c3)cc2CC[C@@H]1C [Cpd 051]", "Target entity": "OPM2 cells", "Observed property": "GI50", "Result": "100 to 500 nM"}
{"Compound": "CC(=O)N1c2ccc(-c3ccc(CNC(=O)c4nc5c(N6CCOCC6)cc(-c6cnc(N)nc6)cn5n4)cc3)cc2CC[C@@H]1C [Cpd 073]", "Target entity": "OPM2 cells", "Observed property": "GI50", "Result": "≤ 100 nM"}
{"Compound": "CC(=O)N1c2ccc(-c3ccc(C(=O)N(C)CCN(C)C(=O)c4cn5cc(-c6cnc(N)nc6)nc(N6CCOCC6)c5n4)cc3)cc2CC[C@@H]1C [Cpd 036]", "Target entity": "OPM2 cells", "Observed property": "GI50", "Result": "> 500 nM"}
{"Compound": "CC(=O)N1c2ccc(-c3ccc(CNC(=O)c4cn5cc(-n6c(C(F)F)nc7ccccc76)nc(N6CCOCC6)c5n4)cc3)cc2CC[C@@H]1C [Cpd 060]", "Target entity": "OPM2 cells", "Observed property": "GI50", "Result": "≤ 100 nM"}
{"Compound": "CC(=O)N(Cc1ccc(-c2ccc3c(c2)CC[C@H](C)N3C(C)=O)cc1)Cc1sc2c(N3CCOCC3)nc(-c3cnc(N)nc3)nc2c1C [Cpd 056]", "Target entity": "OPM2 cells", "Observed property": "GI50", "Result": "100 to 500 nM"}

These entries and their values trace back to patent US20230312577A1.
